Values from ChEMBL document CHEMBL6182949

In this section, each of the compounds is paired with its reported DC50.
target: Protein cereblon/Interleukin-1 receptor-associated kinase 4 (Homo sapiens, UniProt Q9NWZ3+Q96SW2); test: PROTAC activity at CRBN/IRAK4 in human THP-1 cells assessed as induction of IRAK4 degradation incubated for 24 hrs by HiBiT lytic reagent based analysis; format: cell-based
Sequence (Q9NWZ3 whole entry): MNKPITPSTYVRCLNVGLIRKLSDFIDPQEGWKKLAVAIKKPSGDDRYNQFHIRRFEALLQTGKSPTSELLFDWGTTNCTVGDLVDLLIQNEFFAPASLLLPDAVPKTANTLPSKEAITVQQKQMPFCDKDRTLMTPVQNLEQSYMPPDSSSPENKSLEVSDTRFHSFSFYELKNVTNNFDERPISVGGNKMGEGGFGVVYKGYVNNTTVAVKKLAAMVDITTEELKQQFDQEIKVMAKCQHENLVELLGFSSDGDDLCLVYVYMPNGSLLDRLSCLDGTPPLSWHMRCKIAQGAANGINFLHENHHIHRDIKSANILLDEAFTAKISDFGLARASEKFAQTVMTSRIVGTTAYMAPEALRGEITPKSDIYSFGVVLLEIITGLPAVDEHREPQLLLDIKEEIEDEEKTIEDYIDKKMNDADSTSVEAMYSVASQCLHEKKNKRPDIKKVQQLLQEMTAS
Sequence (Q96SW2 whole entry): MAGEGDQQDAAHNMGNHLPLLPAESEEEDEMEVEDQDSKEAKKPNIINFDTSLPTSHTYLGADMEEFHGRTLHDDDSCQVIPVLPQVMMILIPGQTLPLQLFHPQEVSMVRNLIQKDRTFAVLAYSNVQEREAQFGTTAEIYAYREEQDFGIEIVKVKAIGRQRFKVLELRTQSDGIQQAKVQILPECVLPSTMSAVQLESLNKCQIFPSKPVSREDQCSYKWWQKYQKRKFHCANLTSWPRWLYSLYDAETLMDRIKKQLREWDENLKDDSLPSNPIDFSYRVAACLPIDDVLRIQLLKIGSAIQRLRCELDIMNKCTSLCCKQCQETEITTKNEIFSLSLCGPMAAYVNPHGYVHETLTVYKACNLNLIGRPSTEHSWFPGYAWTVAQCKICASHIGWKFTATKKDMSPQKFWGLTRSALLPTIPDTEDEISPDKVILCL
Give just the numeric value; nM need not be written.

Please review the following examples before continuing.
INSERT INTO results (compound, measurement_name, unit_text, result_value) VALUES
  ('Cn1c(=O)n(C2CCC(=O)NC2=O)c2cccc(C#CCO[C@H]3CC[C@@H](CN4CCC5(Cc6cc(NC(=O)c7cnn8cccnc78)c(N7CCC(CO)CC7)cc6O5)C4)CC3)c21 (some centres undefined)', 'DC50', 'nM', 7.79),
  ('Cn1c(=O)n(C2CCC(=O)NC2=O)c2cccc(CN3CCC4(CC3)CN(CCN3CCC5(CC3)Cc3cc(NC(=O)c6cnn7cccnc67)c(N6CCC(CO)CC6)cc3O5)C4)c21 (centres undefined)', 'DC50', 'nM', 1.53),
  ('Cn1c(=O)n(C2CCC(=O)NC2=O)c2cccc(C#CCO[C@H]3CC[C@H](CN4CCC5(CC4)Oc4cc(N6CCC(CO)CC6)c(NC(=O)c6cnn7cccnc67)cc4C5=O)CC3)c21 (some centres undefined)', 'DC50', 'nM', 1000);

Request: Specify reported DC50 for the compound shown: Cn1c(=O)n(C2CCC(=O)NC2=O)c2cccc(C#CCO[C@H]3CC[C@H](CN4CCC5(CC4)Cc4cc(NC(=O)c6cnn7cccnc67)c(N6CCC(O)CC6)cc4O5)CC3)c21 (some centres undefined)
Response: 1.37

---

Catalogue of half-life at 1 µM values
assay: Metabolic stability in human liver microsome assessed as half life at 1 uM measured up to 60 mins in presence of NADPH by LC-MS/MS analysis; format: ADME; conditions: liver microsomes

Use the examples below as a reference point.
INSERT INTO assay_data (compound, measurement_name, result_value) VALUES
  ('Cn1c(=O)n(C2CCC(=O)NC2=O)c2cccc(C#CCO[C@H]3CC[C@H](CN4CCC5(CC4)Cc4cc(NC(=O)c6cnn7cc(Cl)cnc67)c(N6CCC(CO)CC6)cc4O5)CC3)c21 (stereo partly drawn)', 'half-life at 1 µM', '> 3.07 h'),
  ('Cn1c(=O)n(C2CCC(=O)NC2=O)c2cccc(C#CCO[C@H]3CC[C@H](CN4CCC5(CC4)Cc4cc(NC(=O)c6cnc7cccnn67)c(N6CCC(CO)CC6)cc4O5)CC3)c21 (stereo partly drawn)', 'half-life at 1 µM', '> 3.07 h');

Continue with the compound presented below.
Request: Output measured half-life at 1 µM for this item: Cn1c(=O)n(C2CCC(=O)NC2=O)c2cccc(C#CCO[C@H]3CC[C@H](CN4CCC5(CC4)Cc4cc(NC(=O)c6cnn7cccnc67)c(N6CCC(O)CC6)cc4O5)CC3)c21 (stereo partly drawn)
Response: > 3.07 h
